procedure_text: chemical genetic growth profiling, strain panel (AID 1159580);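 further: tested at 20 µM; growth read once vehicle control cultures reached saturation at 30 °C; 1 = growth at the plate median or of vehicle wells; lower values mean less growth of the strain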
assay_setup: S. cerevisiae deletion strains, growth OD, locus YLR221C, strain rsa3
Out of some 5,500 compounds screened, about 2,000 (36%) were called active. Inconclusive results (about 18%) are left out. No stated cut-off is given here; in the data, active means normalized growth mostly below about 0.91 (no sharp cut-off); inconclusive means no clear call, values can overlap the other calls; inactive means mostly above about 0.92. This is one part of the list.
Use one of these outcomes when replying: 1 for active, -1 for inactive

(Q) Tell me the assay call for CCCc1nc(C(C)(C)O)c(C(=O)OCc2oc(=O)oc2C)n1Cc1ccc(-c2ccccc2-c2nn[nH]n2)cc1 please.
(A) -1

(Q) Tell me the assay call for N#Cc1ccc2c(c1)N(CCCN1CCC(O)CC1)c1ccccc1S2 please.
(A) -1

(Q) Tell me the assay call for O=c1n(CCCN2CCN(c3cccc(Cl)c3)CC2)nc2ccccn12 please.
(A) -1

(Q) Tell me the assay call for CCCCC(=O)N(Cc1ccc(-c2ccccc2-c2nn[nH]n2)cc1)[C@H](C(=O)O)C(C)C please.
(A) -1

(Q) Tell me the assay call for CN1CCN(CCCN2c3ccccc3Sc3ccc(Cl)cc32)CC1 please.
(A) 1

----------
Field: normalized growth. Provide a value for each of the molecules that follow.
procedure_text: chemical genetic growth profiling, strain panel (AID 1159580);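 further: tested at 20 µM; growth read once vehicle control cultures reached saturation at 30 °C; 1 = growth at the plate median or of vehicle wells; lower values mean less growth of the strain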
assay_setup: S. cerevisiae deletion strains, growth OD, locus YOL147C, strain pex11, hits give low values
Among all 5,500 compounds or so, about 2,000 (36%) were called active. Not shown: some 18% with an inconclusive outcome. The list shows a part of the results.

(Q) Return the recorded normalized growth value; entry: CCCC(=O)Nc1ncnc2c1ncn2C1O[C@@H]2COP(=O)(O)O[C@H]2[C@H]1OC(=O)CCC (some centres not stated)
(A) 1.02 (inactive)

(Q) Return the recorded normalized growth value; entry: CN1CCN(CCCN2c3ccccc3Sc3ccc(Cl)cc32)CC1
(A) 0.938 (inactive)

(Q) Return the recorded normalized growth value; entry: COc1cc(O)c(C(=O)O)c(O)c1
(A) 1 (inactive)

(Q) Return the recorded normalized growth value; entry: Cc1c(N(C)CS(=O)(=O)O)c(=O)n(-c2ccccc2)n1C
(A) 0.985 (inactive)

(Q) Return the recorded normalized growth value; entry: COc1cc(OC)cc(OC)c1
(A) 0.838 (active)

(Q) Return the recorded normalized growth value; entry: C[N+]1(C)C2CC[C@H]1CC(OC(=O)C(O)c1ccccc1)C2 (some centres not stated)
(A) 1.02 (inactive)

(Q) Return the recorded normalized growth value; entry: O=C(O)c1cc2cc(Cl)ccc2[nH]1
(A) 0.981 (inactive)

(Q) Return the recorded normalized growth value; entry: Nc1ncnc2c1ncn2[C@@H]1O[C@H](CO)[C@@H](O)[C@@H]1O
(A) 1.03 (inactive)

(Q) Return the recorded normalized growth value; entry: O=C1OC(=O)C2C3CCC(O3)C12 (configuration not stated)
(A) 0.973 (inactive)

(Q) Return the recorded normalized growth value; entry: CCCCC(=O)N(Cc1ccc(-c2ccccc2-c2nn[nH]n2)cc1)[C@H](C(=O)O)C(C)C
(A) 0.98 (inactive)

(Q) Return the recorded normalized growth value; entry: Cc1cc(C)nc(NS(=O)(=O)c2ccc(N)cc2)n1
(A) 0.991 (inactive)

(Q) Return the recorded normalized growth value; entry: Fc1ccc(C(c2ccc(F)cc2)N2CCN(C/C=C/c3ccccc3)CC2)cc1
(A) 0.984 (inactive)

(Q) Return the recorded normalized growth value; entry: C[C@]12C=CC(=O)C=C1CCC1C2C(=O)C[C@@]2(C)C1CC[C@]2(O)C(=O)CO (some centres not stated)
(A) 0.999 (inactive)

(Q) Return the recorded normalized growth value; entry: O=C(CCCN1CC=C(n2c(=O)[nH]c3ccccc32)CC1)c1ccc(F)cc1
(A) 0.991 (inactive)

(Q) Return the recorded normalized growth value; entry: Cn1nnnc1SCC1=C(C(=O)O)N2C(=O)C(NC(=O)C(OC=O)c3ccccc3)C2SC1 (configuration not stated)
(A) 1.02 (inactive)

(Q) Return the recorded normalized growth value; entry: CCS(=O)(=O)CCn1c([N+](=O)[O-])cnc1C
(A) 1 (inactive)

(Q) Return the recorded normalized growth value; entry: COc1cc(O)c(C)c(O)c1
(A) 1.02 (inactive)

(Q) Return the recorded normalized growth value; entry: COC(=O)C[C@H]1C(C)(C)[C@@H](OC(C)=O)[C@@H]2CC3C4CC(=O)O[C@@H](c5ccoc5)[C@]4(C)CCC3[C@@]1(C)C2=O (some centres not stated)
(A) 1.01 (inactive)

(Q) Return the recorded normalized growth value; entry: NCCS
(A) 1.02 (inactive)

(Q) Return the recorded normalized growth value; entry: CCCCC/C=C\C/C=C\C/C=C\C/C=C\CCCC(=O)O
(A) 0.987 (inactive)

(Q) Return the recorded normalized growth value; entry: O=c1[nH]c2ccccc2n1C1CCN(CCCC(c2ccc(F)cc2)c2ccc(F)cc2)CC1
(A) 1 (inactive)

(Q) Return the recorded normalized growth value; entry: COc1cc(O)c(C(C)=O)c(OC)c1
(A) 1 (inactive)

(Q) Return the recorded normalized growth value; entry: C/C=C(\C)C(=O)OC1[C@@H]2C=C3C4CC(=O)O[C@@H](c5ccoc5)[C@]4(C)CCC3[C@@](C)(C2=O)[C@@H](C(O)C(=O)OC)C1(C)C (some centres not stated)
(A) 1.01 (inactive)

(Q) Return the recorded normalized growth value; entry: N#Cc1ccc2c(c1)N(CCCN1CCC(O)CC1)c1ccccc1S2
(A) 1.02 (inactive)

(Q) Return the recorded normalized growth value; entry: O=[N+]([O-])/N=C1/NCCN1Cc1ccc(Cl)cc1
(A) 0.991 (inactive)

(Q) Return the recorded normalized growth value; entry: CC(C)=CCC1=C(O)c2ccccc2C(=O)C1=O
(A) 0.953 (inactive)

(Q) Return the recorded normalized growth value; entry: Cn1cnc([N+](=O)[O-])c1Sc1ncnc2nc[nH]c12
(A) 0.988 (inactive)

(Q) Return the recorded normalized growth value; entry: C[C@]12C=CC(=O)C=C1CCC1C2CC[C@]2(C)C(=O)CCC12 (some centres not stated)
(A) 0.997 (inactive)

(Q) Return the recorded normalized growth value; entry: COc1ccc2[nH]cc(CCNC(C)=O)c2c1
(A) 1.02 (inactive)

(Q) Return the recorded normalized growth value; entry: c1coc(CNc2ncnc3nc[nH]c23)c1
(A) 0.999 (inactive)

(Q) Return the recorded normalized growth value; entry: C[C@]12CCC3c4ccc(O)cc4CCC3C1CC[C@@H]2OC(=O)CCC1CCCC1 (some centres not stated)
(A) 1.01 (inactive)

(Q) Return the recorded normalized growth value; entry: CC(=O)Oc1ccc2c(c1)CCC1C2CC[C@@]2(C)C1CC[C@@H]2OC(C)=O (some centres not stated)
(A) 0.969 (inactive)

(Q) Return the recorded normalized growth value; entry: CC(=O)N[C@@H](CC(=O)O)C(=O)O
(A) 1.01 (inactive)

(Q) Return the recorded normalized growth value; entry: CC(=O)OCC(=O)[C@@]1(O)CCC2C3CCC4=CC(=O)CC[C@]4(C)[C@@]3(F)[C@@H](O)C[C@@]21C (some centres not stated)
(A) 1 (inactive)

(Q) Return the recorded normalized growth value; entry: CCCCC(=O)O[C@H]1CCC2C3CCc4cc(O)ccc4C3CC[C@@]21C (some centres not stated)
(A) 1.01 (inactive)

(Q) Return the recorded normalized growth value; entry: CC1=C2[C@](C)(C=CC1=O)C[C@H](O)[C@H]1[C@H](C)C(=O)O[C@]21C
(A) 1.03 (inactive)

(Q) Return the recorded normalized growth value; entry: CC(=O)OC1CCC2C3CCc4cc(O)ccc4C3CCC12C (configuration not stated)
(A) 1.02 (inactive)

(Q) Return the recorded normalized growth value; entry: COc1c(O)cc(O)cc1O
(A) 1 (inactive)

(Q) Return the recorded normalized growth value; entry: O=c1[nH]cnc2nc[nH]c12
(A) 0.98 (inactive)

(Q) Return the recorded normalized growth value; entry: C[C@H]1C(=O)O[C@@H]2CCN3CC=C(COC(=O)[C@](C)(O)[C@]1(C)O)[C@H]23
(A) 0.997 (inactive)

(Q) Return the recorded normalized growth value; entry: C[C@]12CCC3C(CC[C@H]4CC(=O)CC[C@]34C)C1CCC2=O (some centres not stated)
(A) 0.975 (inactive)

(Q) Return the recorded normalized growth value; entry: CCC(=O)O[C@H]1CCC2C3CCc4cc(O)ccc4C3CC[C@@]21C (some centres not stated)
(A) 1 (inactive)
